Sourced from patent US20250179057A1

Measured Mean Papp B − A (10^−6 cm/s), listed per entry for reference.
# Test system: Caco-2 cells
# protocol.notes: Caco-2 bidirectional permeability (absorption & efflux)
# test.context: Example 47

Sample answers from the record:
- compound: "CCS(=O)(=O)Nc1cccc(Cc2c(CN(C)C)c3ccc(OC(=O)N(C)C)cc3oc2=O)c1F [Compound 120]"
  Mean Papp B − A (10^−6 cm/s): "12.4 10^−6 cm/s"
- compound: "CNS(=O)(=O)Nc1nccc(Cc2c(CN(C)C)c3ccc(OC(=O)N(C)C)cc3oc2=O)c1F [Compound 124]"
  Mean Papp B − A (10^−6 cm/s): "18.0 10^−6 cm/s"

Problem: State its Mean Papp B − A (10^−6 cm/s): CCCS(=O)(=O)Nc1cccc(Cc2c(CN3CCNCC3)c3cc(Cl)c(OC(=O)N(C)C)cc3oc2=O)c1F [Compound 167]
Solution: 19.6 10^−6 cm/s

Problem: State its Mean Papp B − A (10^−6 cm/s): CNS(=O)(=O)Nc1cccc(Cc2c(CN(C)C)c3ccc(OC(=O)N(C)C)cc3oc2=O)c1F [Compound 9]
Solution: 21.7 10^−6 cm/s

Problem: State its Mean Papp B − A (10^−6 cm/s): CNS(=O)(=O)Nc1cccc(Cc2c(CN(C)C)c3cc(F)c(OC(=O)N(C)C)cc3oc2=O)c1F [Compound 25]
Solution: 16.7 10^−6 cm/s

----------
Measured half-life at 2 μM, listed per entry for reference.
# protocol.notes: Plasma stability, cynomolgus monkey plasma (K2-EDTA)
# Assay type: in vitro ADME
# test.context: plasma (K2EDTA), pH 7.4, anti-coagulant K2-EDTA
Counter-ions that a name gives are not always drawn.

Sample answers from the record:
- compound: "CNS(=O)(=O)Nc1cccc(Cc2c(CN3CCNCC3)c3ccc(OC(=O)N(C)C)cc3oc2=O)c1Cl [Compound 246, hydrochloride]"
  half-life at 2 μM: "> 2 h"
- compound: "CCN(C)Cc1c(Cc2cccc(NS(=O)(=O)NC)c2F)c(=O)oc2cc(OC(=O)N(C)C)c(F)cc12"
  half-life at 2 μM: "> 2 h"

Problem: State its half-life at 2 μM: "CNS(=O)(=O)Nc1cccc(Cc2c(CN(C)C)c3ccc(OC(=O)N(C)C)cc3oc2=O)c1Cl"
Solution: > 2 h

----------
Measured T1/2, listed per entry for reference.
# Test system: wistar hannover rat hepatocytes
# protocol.notes: Hepatocyte stability, wistar hannover rat
# Format: in vitro ADME
# test.context: 2 μM, 0.5 million cells/ml
Reply numerically in h, unit not repeated.

Problem: Tell me its T1/2 on wistar hannover rat hepatocytes: "CCCS(=O)(=O)Nc1cccc(Cc2c(CN3CCNCC3)c3cc(Cl)c(OC(=O)N(C)C)cc3oc2=O)c1F"
Solution: 1.18

Problem: Tell me its T1/2 on wistar hannover rat hepatocytes: "CCS(=O)(=O)Nc1cccc(Cc2c(CN(C)C)c3ccc(OC(=O)N(C)C)cc3oc2=O)c1F"
Solution: 1.22

Problem: Tell me its T1/2 on wistar hannover rat hepatocytes: "CNS(=O)(=O)Nc1cccc(Cc2c(CN(C)C)c3ccc(OC(=O)N(C)C)cc3oc2=O)c1F"
Solution: 1.32
